Values were extracted from ChEMBL document CHEMBL1149103.

Organism: Mus musculus
assaySummary: Anticonvulsant activity expressed as log(1/EDMES(2.5)) in MES assay on mice that responded a score of 2.5
Assay type: functional
valueType: Log 1/EDMES(2.5)
// response body must contain only the number

O=C1NC(=O)/C(=C/c2ccc(C(F)(F)F)cc2)N1	-1.81
O=C1NC(=O)/C(=C/c2cccc(Br)c2)N1	-1.95
O=C1NC(=O)/C(=C/c2ccc(F)cc2)N1	-2.3
Cc1cccc(/C=C2\NC(=O)NC2=O)c1	-1.87
O=C1NC(=O)/C(=C/c2ccc(F)c(F)c2)N1	-2.08

# Log 1/EDMES(2.5) of Cc1cc(C)c(/C=C2\NC(=O)NC2=O)cc1C = -2.3

# Log 1/EDMES(2.5) of CCCCOc1ccc(/C=C2\NC(=O)NC2=O)cc1 = -2.3
